- Tested on: NCI-H520
- ASSAY EXPLANATION: relative viability (nuclei count vs DMSO), 5 days (fraction); higher = more cells survive
- CONDITION PARAMETERS: first compound 0.08 µM
relative viability vs 0.7: less than gives 1; not less than gives -1.

[
  {
    "COMPOUND": "O=c1[nH]c2ccccc2n1C1CCN(CCCC(c2ccc(F)cc2)c2ccc(F)cc2)CC1 [Pimozide] + O=C(CCCCCCC(=O)Nc1ccccc1)NO [Vorinostat] (partner 1 µM)",
    "ASSIGNED CATEGORY": -1
  },
  {
    "COMPOUND": "Cc1cnc(-c2cnc(NCCNc3ccc(C#N)cn3)nc2-c2ccc(Cl)cc2Cl)[nH]1 + C[C@@H](Oc1cc(-c2cnn(C3CCNCC3)c2)cnc1N)c1c(Cl)ccc(F)c1Cl [Crizotinib] (partner 1 µM)",
    "ASSIGNED CATEGORY": -1
  },
  {
    "COMPOUND": "O=c1[nH]c2ccccc2n1C1CCN(CCCC(c2ccc(F)cc2)c2ccc(F)cc2)CC1 [Pimozide] + Cc1cc(Nc2cc(N3CCN(C)CC3)nc(Sc3ccc(NC(=O)C4CC4)cc3)n2)n[nH]1 [Tozasertib] (partner 0.1 µM)",
    "ASSIGNED CATEGORY": 1
  },
  {
    "COMPOUND": "O=c1[nH]c2ccccc2n1C1CCN(CCCC(c2ccc(F)cc2)c2ccc(F)cc2)CC1 [Pimozide] + Nc1ncn([C@H]2C[C@H](O)[C@@H](CO)O2)c(=O)n1 [Decitabine] (partner 2 µM)",
    "ASSIGNED CATEGORY": 1
  },
  {
    "COMPOUND": "Cc1cnc(-c2cnc(NCCNc3ccc(C#N)cn3)nc2-c2ccc(Cl)cc2Cl)[nH]1 + N=C(N)NC(=N)NCCc1ccccc1 [Phenformin] (partner 250 µM)",
    "ASSIGNED CATEGORY": -1
  },
  {
    "COMPOUND": "Cc1cnc(-c2cnc(NCCNc3ccc(C#N)cn3)nc2-c2ccc(Cl)cc2Cl)[nH]1 + Nc1ncn([C@H]2C[C@H](O)[C@@H](CO)O2)c(=O)n1 [Decitabine] (partner 2 µM)",
    "ASSIGNED CATEGORY": 1
  }
]
